biological target: ROR1 kinase domain (Homo sapiens, UniProt Q01973); construct: recombinant human ROR1 protein (aa 453‐783, His&GST Tag); His; GST; purchased Elabscience; assay: SPR assay on ROR1 kinase domain; assay type: binding; details: SPR, KD ± SD, 0 to 100 μM, 25 °C; n.b. = no binding; read-out: Kinase domain KD
Sequence (Q01973 453-783): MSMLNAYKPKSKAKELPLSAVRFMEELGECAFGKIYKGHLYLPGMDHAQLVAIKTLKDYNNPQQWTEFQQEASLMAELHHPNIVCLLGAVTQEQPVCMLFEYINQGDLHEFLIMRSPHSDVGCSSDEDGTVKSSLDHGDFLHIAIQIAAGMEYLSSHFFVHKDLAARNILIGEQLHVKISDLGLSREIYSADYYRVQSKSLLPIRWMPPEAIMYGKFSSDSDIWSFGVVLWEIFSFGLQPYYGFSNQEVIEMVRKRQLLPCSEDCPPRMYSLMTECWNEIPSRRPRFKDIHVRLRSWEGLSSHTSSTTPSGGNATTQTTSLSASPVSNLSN
Task for the reader: assign each of the following compounds its reported pKd.
Give bare numbers, as −log10 of the molar value.

# input What value of pKd has been reported for the following compound? "O=C(NCc1ccc(-c2ccccc2)cc1)Nc1ccc(NCC2CCNCC2)cc1C(F)(F)F"
# output 4.92

# input What value of pKd has been reported for the following compound? "COc1cc(NCC2CCNCC2)ccc1NC(=O)NCc1ccc(-c2ccccc2)cc1"
# output 4.82

Record pKd for all entries; do not skip any.
1. O=C(NCc1ccc(-c2ccccc2)cc1)Nc1ccc(NCC2CCNCC2)cc1
2. NCCCNc1ccc(NC(=O)NCc2ccc(-c3ccccc3)cc2)c(C(F)(F)F)c1
3. O=C(NCc1ccc(-c2ccccc2)cc1)Nc1ccc(NC2CCNCC2)cc1C(F)(F)F

# output
[4.73, 4.78, 4.87]

Where these numbers come from: paper PMC12276035
